target: HLA-A*68:02; assay: IEDB peptide-MHC binding, purified MHC/competitive/radioactivity; bounds were set here for any values at or beyond the usual limits of such assays; conditions: source organism: Mammarenavirus guanaritoense
pIC50: −log10 of the molar value.
attribute_measured: pIC50

primary_sequence	attribute_measured	assay_result
TNAEFTFQL	pIC50	8.28
CNYTRFWYI	pIC50	6.46
YCLDFLFDV	pIC50	7.62
TSVDLNAPV	pIC50	9.59
MNNVVQALT	pIC50	6.55
LCFWSAIFFT	pIC50	5.74
WSAIFFTTSL	pIC50	6.52
YCNYTRFWYI	pIC50	5.87
TLVDLCFWS	pIC50	5.31

* * *

biological target: HLA-A*02:06; assay: IEDB peptide-MHC binding, purified MHC/competitive/radioactivity; bounds were set here for any values at or beyond the usual limits of such assays; conditions: source organism: Mammarenavirus brazilense

primary_sequence	measured_target	unit_label	IC50
YNYSLSAAV	HLA-A*02:06	nM	88
KNATWCLEV	HLA-A*02:06	nM	2320
LNISGYNYSL	HLA-A*02:06	nM	1100
LLPDALLFTL	HLA-A*02:06	nM	79
SNPNLFWAV	HLA-A*02:06	nM	35
LSNCVHPAV	HLA-A*02:06	nM	461
MSPALFFTFL	HLA-A*02:06	nM	834
GLLEWIFRA	HLA-A*02:06	nM	7.1
TSLGLLYTV	HLA-A*02:06	nM	4.2
HSLPRCWLV	HLA-A*02:06	nM	323

* * *

target: HLA-A*02:02; assay: IEDB peptide-MHC binding, purified MHC/competitive/radioactivity; bounds were set here for any values at or beyond the usual limits of such assays; conditions: source organism: Hepatitis B virus
pIC50: −log10 of the molar value.
Label TRUE when pIC50 >= 7; otherwise FALSE.

primary_sequence	measured_target	category_label
GLSRYVARV	HLA-A*02:02	TRUE
KQYLNLYPV	HLA-A*02:02	FALSE
ILSPFLPLL	HLA-A*02:02	TRUE
GLLGWSPQA	HLA-A*02:02	TRUE
FLCKQYLNL	HLA-A*02:02	FALSE
ILLLCLIFL	HLA-A*02:02	FALSE
GLSPTVWLSV	HLA-A*02:02	TRUE
YQGMLPVCPL	HLA-A*02:02	TRUE
FLAPLPIHTA	HLA-A*02:02	TRUE
FLFILLLCLI	HLA-A*02:02	FALSE
FIIFLFILL	HLA-A*02:02	FALSE
WMMWYWGPSL	HLA-A*02:02	FALSE
RVRGLYFPA	HLA-A*02:02	FALSE
SLYSILSPFL	HLA-A*02:02	TRUE
FLGPLLVLQA	HLA-A*02:02	FALSE
FLLAQFTSAI	HLA-A*02:02	TRUE
LLWFHISCL	HLA-A*02:02	FALSE
CLIFLLVLL	HLA-A*02:02	FALSE
ILRGTSFVYV	HLA-A*02:02	TRUE
VLLDYQGML	HLA-A*02:02	TRUE
SLYADSPSV	HLA-A*02:02	TRUE
FIIFLFILLL	HLA-A*02:02	FALSE
LLVLLDYQGM	HLA-A*02:02	FALSE
ILCWGELMTL	HLA-A*02:02	TRUE
LLVPFVQWFV	HLA-A*02:02	TRUE
